system: U2OS; test: Multiplex assay against U2OS; assay type: toxicity, cell-based; conditions: human, 48 h, 1 µM, compound concentration 1 uM, replicate 2
outcome.measure: Population Mitochondria Different-Phenotype (%)

# compound, measured.number
records = [
    ("CN(C)C(=O)Cn1cc(-c2ccc(-c3nnc4ccccn34)cc2)cn1", 3),
    ("O=C(NCCNCC(O)COc1ccc(O)cc1)N1CCOCC1.O=C(NCCNCC(O)COc1ccc(O)cc1)N1CCOCC1.O=C(O)/C=C/C(=O)O (centres undefined) [XAMOTEROL FUMARATE]", 3),
    ("CN1CCC(C(=O)c2cccc(NC(=O)c3c(F)cc(F)cc3F)n2)CC1", 8),
    ("Cc1nn(C)c2nc(NNC(=O)Nc3cc(Cl)nc(Cl)c3)cc(C(C)C)c12", 4),
]

* * *

Reported Population Mitotic Cells (%) values follow for various compounds
test system: Fibroblast; assay: Multiplex assay against human fibroblast; assay type: toxicity, cell-based; settings: 24 h, 10 µM, compound concentration 10 uM, replicate 2
Non-standard residues stand in square brackets, D forms with d. Residues, ends and D or L forms follow the SMILES beside them.
outcome.measure: Population Mitotic Cells (%)

# compound, outcome.measure, unit.text, measured.number
rows = [
    ("CSc1nc(NC2CCCC2)c([N+](=O)[O-])c(NC2CCCC2)n1 [GS-39783]", "Population Mitotic Cells (%)", "%", 63),
    ("CC(C)C[C@@H]1NC(=O)[C@@H](C(C)C)NC(=O)[C@@H]2CCCN2C(=O)[C@@H](CC(=O)O)NC(=O)[C@@H](Cc2c[nH]c3ccccc23)NC1=O [BQ-123] (cyclo(L[dW][dD]P[dV]))", "Population Mitotic Cells (%)", "%", 70),
    ("CN1CCC(C(=O)c2cccc(NC(=O)c3c(F)cc(F)cc3F)n2)CC1", "Population Mitotic Cells (%)", "%", 62),
    ("COC(c1ccccc1)(c1ccccc1)[C@H](Oc1nc(C)cc(C)n1)C(=O)O [AMBRISENTAN]", "Population Mitotic Cells (%)", "%", 72),
]

* * *

tested on: HEK-293T; assay: Multiplex assay against HEK293T; format: toxicity, cell-based; settings: human, 12 h, 1 µM, compound concentration 1 uM, replicate 1
Parameter threshold = 80%. Response is fulfilled when Population Healthy Nuclei (%) meets or exceeds it, else not fulfilled.

# compound, label.class
data = [
    ("Cc1cc(NC(=O)NCCN2CCC(O)(Cc3ccccc3)CC2)c2ccccc2n1", "not fulfilled"),
    ("Cn1cc(C(=O)OCC2CCN(CCNS(C)(=O)=O)CC2)c2ccccc21", "fulfilled"),
    ("Cc1cc(O)c(-c2ccc([C@@H](C)CN(C)C)cc2)c2c1[nH]c(=O)c1sccc12", "not fulfilled"),
    ("COc1cc2nc(N3CCN(C(=O)COc4c(OC)cccc4C(C)C)CC3)nc(N)c2cc1OC.Cl.Cl", "not fulfilled"),
    ("CN1C[C@H](C(=O)N[C@]2(C)O[C@@]3(O)[C@@H]4CCCN4C(=O)[C@H](Cc4ccccc4)N3C2=O)C[C@@H]2c3cccc4[nH]cc(c34)C[C@H]21.CS(=O)(=O)O [DIHYDROERGOTAMINE MESYLATE]", "fulfilled"),
    ("Nc1nc(-c2ccco2)c2cnn(Cc3ccccc3F)c2n1", "not fulfilled"),
    ("CN(C)C/C=C/C(=O)Nc1ccc(C(=O)N2CCCC(Nc3ncc(Cl)c(-c4c[nH]c5ccccc45)n3)C2)cc1 (stereo not drawn)", "not fulfilled"),
    ("COc1cc2nc(N3CCN(C(=O)c4ccco4)CC3)nc(N)c2cc1OC.Cl [PRAZOSIN HYDROCHLORIDE]", "not fulfilled"),
    ("Cc1nn(C)c2nc(NNC(=O)Nc3cc(Cl)nc(Cl)c3)cc(C(C)C)c12", "not fulfilled"),
    ("COc1cc(OC2CCN(C(C)=O)CC2)ccc1C(=O)N1CCC(N2C(=O)OCc3ccccc32)CC1", "fulfilled"),
    ("Cc1cc(-c2ccc3c(c2)CC[C@H]3N2CC3(CCN(C(=O)Cc4cn5cc(C)sc5n4)CC3)C2)ncn1", "fulfilled"),
    ("CCn1c(-c2nc3cc(C(=O)N4CCCC(N)C4)ccc3n2C)cc2ccccc21.Cl (stereo not drawn)", "not fulfilled"),
]

Origin of measurements: ChEMBL document CHEMBL5058577
